Below is a list of entries, each paired with its recorded EC50 value.
assayProtocol: cytotoxicity toward NIH3T3 fibroblasts, dose response, counter-screen, cell-based, ATP luminescence, mouse fibroblasts (AID 2010);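 note: cells exposed to compound for about 90 hours before reading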
Format: functional
Calls of active or inactive are those of the source. Cut-off read from the data, not from the text of the source: actives have a measured EC50 and inactives only a lower limit.

Determine its reported EC50: O=P(CCCCCCCCCP(=O)(c1ccccc1)c1ccccc1)(c1ccccc1)c1ccccc1
> 60 µM (not active)

Determine its reported EC50: CC(C)CCSc1nc(N2CCOCC2)c2c(c1C#N)CC(C)(C)OC2
> 60 µM (not active)

Determine its reported EC50: C(=N\Nc1nc(Nc2ccccc2)nc(N2CCOCC2)n1)/c1c[nH]c2ccccc12
0.536 µM (active)

Determine its reported EC50: Cc1cc(Br)ccc1OCCN1CCCC1
58.7 µM (active)
